Measured melting point accompanies every entry in the list below.

As a guide, the following entries are already answered.
COMPOUND	RECORDED_RESULT
O=C1O[C@@H](CO)CN1c1ccc(C2=CCOCC2)c(F)c1	127 to 130 °C
COc1cc(OC)nc(NC(=O)NS(=O)(=O)c2ccccc2-c2ccno2)n1	183 to 187 °C
CCCCCCCCCCCCCCCc1cc(OCC(COC(=O)NCCCCCn2cnnn2)Oc2cc(C)on2)no1 (racemic)	82 to 84 °C

Turning to the following compound.
## Input Bench note: what melting point did CC(=O)NN=Cc1ccc(N2CCN(C)CC2)nc1F show?
## Output 210 to 212 °C

###

Parameter: melting point. Scope: all listed entries.

MOLECULE	melting point
CCCc1c2nc(C(=O)OCC)cc(C)c2cc2c(=O)cc(C(=O)OCC)oc12	165 to 168 °C
Cc1c(OCCCOc2cc(C(C)(C)C)c(O)c(C(C)(C)C)c2C)cc(C(C)(C)C)c(O)c1C(C)(C)C	120 °C
COC(=O)c1ccc(C(=O)c2ccc(C(=O)OC)cc2)cc1	228 to 230 °C
CC(=O)OC1CSC(Oc2cnccc2-c2cccnc2)C(OC(C)=O)C1OC(C)=O (centres undefined)	159 °C
COc1ccc(NC(=O)c2ccc(-c3ccc(-c4noc(C)n4)cc3C)cc2)cc1OCCN	150 to 153 °C

## Input // melting point lookup, key: CCOC(=O)C(Cl)(Cl)CCCCCCCCCCCCS(=O)(=O)c1ccccc1
## Output 69 to 71 °C

## Input Data request, read-out melting point, for CCCc1cc(C)c(OCCO)c(C(Nc2ccc(C(=N)N)cc2)C(=O)O)c1 (racemic)
## Output 230 °C

## Input What does the data say about its melting point? Entry: O=C(NCCc1ccc(F)cc1)OCC1CCCCC1
## Output 44 to 45 °C

## Input Look up melting point for this molecule: CCc1nc2csc(C(=S)OC)c2[nH]1
## Output 140 to 142 °C

## Input Can you look up the measured melting point of O=C(NCCc1c[nH]c2ccccc12)Oc1ccccc1 for me?
## Output 44 to 46 °C

## Input Endpoint output: melting point of CCNC(=O)CCCNC(=O)CCCNC(=O)CCCNC(=O)CCCNC(=O)OC(C)(C)C . Value?
## Output 196 to 197 °C

###

// values below are reported melting point

Solved entries:
COMPOUND	RECORDED_RESULT
CC(C)(C)c1cc2c(s1)C(=O)N(c1cccc(Br)c1CO)C2	55 to 56 °C
Cc1n[nH]c2cc(-c3ccc4nnn(Cc5ccc6ncccc6c5)c4n3)ccc12	136 to 137 °C
COc1ccc(N(C(=O)CN2C(=O)C(Cc3n[nH]c4ncccc34)C(=O)N(c3ccccc3)c3ccccc32)C(C)C)cc1 (stereo not given)	156 to 158 °C
N#Cc1cnc2sc(-c3ccccc3)cc2c1Nc1cccc2cc[nH]c12	> 245 °C
COc1nc(C)c(N2CCCn3c2nc2c(Cl)ccc(C(O)(C4CC4)C4CC4)c23)c(C)n1	220 to 221 °C

## Input What does the record list as melting point for O=C(O)c1cnc2c3cccc([N+](=O)[O-])c3ccn2c1=O ?
## Output > 300 °C

## Input Entry O=C(O)CC(CC(=O)Nc1cc(O)c(Cl)cc1F)C(F)(F)F (stereo not given) has what melting point?
## Output 171 to 174 °C

## Input Tell me the measured melting point of CON=C(C)CC(C)(C)Cn1cnc2c(N)nc3ccccc3c21 , please.
## Output 148 to 150 °C
